Attribute: log10 of LD50 at 168 h
- Measurement Notes: acute toxicity, intravenous, male mice (LD50, Litchfield and Wilcoxon)
- Recorded Conditions: mouse, in vivo, i.v., 10 animals per group, 7 days observation, 95% confidence limit in brackets
Form field - Quantity: LD50 at 168 h; Unit: mg/kg; Scale: log10

Here is how some molecules turned out for log10 of LD50 at 168 h.
1) CCOC(=O)Oc1c(OC)cc(C(=O)N2CCN(CC3CC3)CC2)cc1OC ... 2.35
2) CC1CN(CC2CC2)CCN1CCCN1CCCC1 (centres unmarked) ... 2.22
3) COc1cc(C(=O)N2CCN(CC3CC3)CC2C)cc(OC)c1OC (centres unmarked) ... 2.11
4) CC1CN(CC2CC2)CCN1CC1CC1 (centres unmarked) ... 2.02
5) CN1CCN(CC2CC2)CC1 ... 2.51
6) CC1CN(CC2CC2)CCN1CCN(C)C (centres unmarked) ... 2.30
7) CCN(CC)CCCN1CCN(CC2CC2)CC1C (centres unmarked) ... 2.13
8) CC1CN(CC2CC2)CCN1CCN1CCCC1 (centres unmarked) ... 2.20
9) CC1CN(CC2CC2)CCN1CCN1CCCCCC1 (centres unmarked) ... 1.98
10) CC1CN(CC2CC2)CCN1Cc1ccc2c(c1)OCO2 (centres unmarked) ... 1.89

So for CC1CN(CC2CC2)CCN1CCCN1CCOCC1 (centres unmarked) , the logged log10 of LD50 at 168 h turned out to be 2.33

For CCN(CC)CCN1CCN(CC2CC2)CC1C (centres unmarked) the molecule record lists log10 of LD50 at 168 h as 2.18

For reference, reported log10 of LD50 at 168 h for FC(F)(F)c1cccc(N2CCN(CC3CC3)CC2)c1 stands at 1.48

The recorded log10 of LD50 at 168 h for c1ccc(CN2CCN(CC3CC3)CC2)cc1 is 1.66
